# TEST_SUMMARY: NCI Yeast Anticancer Drug Screen. Data for the rad50 strain (AID 155);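 also: 0% = growth of vehicle-only cultures of the same strain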
# CONDITION_SET: S. cerevisiae rad50 strain growth inhibition; at 11.0 µM; stronger effect = higher value
About 79,000 compounds went through this panel and 15% of them were active in at least one assay; those are over-represented in the sample as a whole. Calls of active or inactive are those of the source. Rule as the data show it: active = growth inhibition above about 70%; inactive = the rest.
Answer each item with its documented growth inhibition.

Solved cases (6 shown):
{"columns": ["COMPOUND", "growth inhibition"],
 "data": [
  ["CC(=O)OC1CCC2(C)C(=CC(C3C=C4CC(OC(C)=O)CCC4(C)C4=C3C3CC5OC6(CCC(C)CO6)C(C)C5C3(C)CC4)C3=C2CCC2(C)C3CC3OC4(CCC(C)CO4)C(C)C32)C1 (configuration not stated)", "2% (inactive)"],
  ["CCn1c(O)c(C=Nc2ccccc2)s/c1=N/Nc1nc(-c2ccccc2)cs1", "14% (inactive)"],
  ["COc1ccc([N+](=O)[O-])c2c(NCCCN(C)C)c3ccccc3nc12", "11% (inactive)"],
  ["CC1OC(O[C@H]2/C=C/C=C/C=C/C=C/C=C/C=C/C=C/[C@H](C)[C@@H](O)[C@@H](C)[C@H](C)OC(=O)C[C@H](O)C[C@H](O)CC[C@@H](O)[C@H](O)C[C@H](O)C[C@]3(O)C[C@H](O)[C@@H](C(=O)O)[C@H](C2)O3)C(O)C(N)C1O (some centres not stated)", "98% (active)"],
  ["O=C1c2ccccc2C(=O)N1CCCC(=O)n1cc(F)c(=O)[nH]c1=O", "18% (inactive)"],
  ["O=C(CC(C(=O)O)N1CCOCC1)c1ccccc1 (configuration not stated)", "2% (inactive)"]
]}

Batch of 8 compounds: report growth inhibition for each.
1. C=C1CC(CCCl)(c2ccccc2)OC1=O (configuration not stated)
2. COc1cc(/C=C2\CCC/C(=C\c3ccc(O)c(OC)c3)C2=O)ccc1O
3. Cc1c(C(C)C)cc(OCCO)cc1C(C)C
4. O=c1ccc2ccccc2c2ccccc12
5. CN(C)Cc1cc(N=Nc2ccc(Cl)cc2)ccc1OC(=O)c1ccccc1
6. Oc1ccc2ccccc2c1CCc1c(O)ccc2ccccc12
7. O=c1c2ccccc2nc(-c2ccccc2)n1O
8. O=[N+]([O-])c1ccc(N/N=C/Cc2ccccc2)c([N+](=O)[O-])c1

Result:
1. 33% (inactive)
2. -7% (inactive)
3. 2% (inactive)
4. 66% (inactive)
5. 1% (inactive)
6. 68% (inactive)
7. 89% (active)
8. 4% (inactive)

Return reported growth inhibition values for all items listed beneath this line.
1. CCOC(=O)C(C(=O)OCC)=P(c1ccccc1)(c1ccccc1)c1ccccc1
2. O=[n+]1c2ccccc2n([O-])c2cc(Br)ccc21
3. COc1cc(CSc2ccc(O)cc2)cc(O)c1O
4. CSc1nnc(SC)nn1
5. CCCCCCCCCCCC1=NCCO1
6. COC(=O)CC1(O)C(/C=C/c2ccccc2)C(C(=O)OC)C(=O)C(C(=O)OC)C1C(=O)OC (configuration not stated)

Result:
1. -3% (inactive)
2. 98% (active)
3. -2% (inactive)
4. -2% (inactive)
5. 14% (inactive)
6. 2% (inactive)

State the recorded growth inhibition for every item in the following list.
1. CN(C)C=NC1CCC(C(C)(C)C)CC1 (configuration not stated)
2. Cc1ccc([N+]2=NC(c3ccccc3)=NN(c3ccccc3)C2)cc1

Result:
["59% (inactive)", "2% (inactive)"]

* * *

# TEST_SUMMARY: NCI Yeast Anticancer Drug Screen. Data for the bub3 strain (AID 167)
# CONDITION_SET: S. cerevisiae bub3 mutant strain, at 50.0 µM, stronger effect = higher value
The panel holds about 79,000 compounds, 15% with a hit somewhere; the sample as a whole holds those more often.
ENDPOINT: growth inhibition (%)
Answers are plain numbers, in %.

Below, 5 compounds whose answers are already recorded.
{"columns": ["COMPOUND", "growth inhibition (%)"],
 "data": [
  ["Cc1c2cc[n+](Cc3ccc(I)cc3)cc2c(C)c2c1[nH]c1ccccc12", 83.3],
  ["CCC(C)(C)c1ccc(Oc2cccc(C(=O)O)c2)cc1", 71.8],
  ["O=C1OC(OC/C(Br)=C(\\Br)COC2OC(=O)C(Cl)=C2Cl)C(Cl)=C1Cl (stereo unspecified)", 93.6],
  ["CCN(CC)CCN(C)CCc1ccc(Br)cc1", 53.5],
  ["CN(C)CCCCN1c2ccccc2Sc2ccc(N=[N+]=[N-])cc21", 72]
]}

I would be grateful if you could provide growth inhibition for each of the following entries.
1. CCCC(=O)Oc1ccc(/C=N/NC(N)=S)nc1
2. CC(C)(C)[Si](C)(C)OCC1CCC(n2cnc3c(NC(=O)c4ccccc4)ncnc32)O1 (stereo unspecified)
3. CCCC(=O)Oc1c(C)cc([N+](=O)[O-])cc1[N+](=O)[O-]
4. O=[n+]1c2ccccc2n([O-])c2cc(Br)ccc21
5. O=C(O)CCCC1CCCc2c1ccc1ccccc21 (stereo unspecified)
6. COc1ccc(NC(=O)CC2SC(=Nc3ccccc3C)NC2=O)c([N+](=O)[O-])c1 (stereo unspecified)

Result:
0.95
23.1
99.5
99.4
89
34.7

* * *

# TEST_SUMMARY: NCI Yeast Anticancer Drug Screen. Data for the mlh1 rad18 strain (AID 175)
# CONDITION_SET: S. cerevisiae mlh1 rad18 strain growth inhibition; at 50.0 µM; stronger effect = higher value
The panel holds about 79,000 compounds, 15% with a hit somewhere; the sample as a whole holds those more often.
ENDPOINT: growth inhibition (%)
Answers are plain numbers, in %.

{"columns": ["MOLECULE_SMILES", "OUTPUT_UNIT", "growth inhibition"],
 "data": [
  ["O=C(NO)Nc1cc(Cl)cc(Cl)c1", "%", 99.3],
  ["O=C(/C=C/c1cc(Cl)cc(Cl)c1O)c1cccc(O)c1", "%", 92.7],
  ["COc1ccc(C(=O)c2ccccc2C(=O)c2ccccc2OC)cc1", "%", 20.7],
  ["Cc1cc(C)c(NC(=S)NC(=O)c2ccccc2)cc1C", "%", 8.65]
]}

Would you mind listing growth inhibition for each of the following compounds?
1. COC(=O)Oc1cc(Cl)c(Cl)cc1Cl
2. C/C(=N\Nc1ccc([N+](=O)[O-])cc1[N+](=O)[O-])c1sc(-n2nc(-c3ccccc3)cc2-c2ccccc2)nc1C

Result:
1. 11.8
2. 79.3

* * *

# TEST_SUMMARY: NCI Yeast Anticancer Drug Screen. Data for the sgs1 strain (AID 173);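 also: 0% = growth of vehicle-only control cultures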
# CONDITION_SET: S. cerevisiae sgs1 mutant, at 1.2 µM, stronger effect = higher value
The panel holds about 79,000 compounds, 15% with a hit somewhere; the sample as a whole holds those more often.
Answer each item with its documented growth inhibition.
Numbers only, in %.

Example entries begin here.
{"columns": ["COMPOUND", "growth inhibition [%]"],
 "data": [
  ["Cc1ccc(Cl)cc1NC(=O)OCCN(C)C(=O)Nc1cc(Cl)ccc1C", -22],
  ["COC(=O)CCC(NC(=S)N/N=C(\\C)c1ccccn1)C(=O)OC (stereo unspecified)", -14],
  ["CCOC(=N)c1ccc(O)c(OC)c1", -3]
]}

Provide growth inhibition for all items below, preserving their order.
1. CCc1cc(O)c(Cl)c(C)c1Cl
2. Cc1c2ccnc(C(=O)NCCN(C)C)c2cc2c3cc(O)ccc3n(C)c12
3. CC(C)/C(Cl)=N\OC(=O)Nc1ccc(F)cc1F

Result:
1: -4; 2: -2; 3: -1

* * *

# TEST_SUMMARY: NCI Yeast Anticancer Drug Screen. Data for the cln2 rad14 strain (AID 165);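 also: 0% = growth equal to vehicle treated cultures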
# CONDITION_SET: S. cerevisiae cln2 rad14 strain, at 50.0 µM
About 79,000 compounds went through this panel and 15% of them were active in at least one assay; those are over-represented in the sample as a whole. The source made the active and inactive calls. Rule as the data show it: active = growth inhibition above about 70%; inactive = the rest.
Please state which outcome applies, choosing from class 1 for active, class 0 for inactive

See these solved cases before continuing.
{"columns": ["COMPOUND", "ANSWER_LABEL"],
 "data": [
  ["COc1ccc(N=CN(C)C)c(C)c1", "class 1"],
  ["CN(C)Cc1cc(N=Nc2ccc(Cl)cc2)ccc1OC(=O)c1ccccc1", "class 1"],
  ["Oc1cccc2cc(Cl)cnc12", "class 1"],
  ["CCC1(OC(=O)CN2CCN(CCO)CC2)C(=O)OCc2c1cc1n(c2=O)Cc2cc3ccccc3nc2-1 (stereo unspecified)", "class 0"]
]}

Request: For Brc1ccccc1-c1ncc(-c2ccccc2)o1 , what call appears in the results of this test?
Result: class 0

Request: How was O=C1CC(=O)c2ccccc21 classified in this test?
Result: class 1

Request: // return assay outcome for CCc1ccc2c(c1)N(CC(C)CN(C)C)c1ccccc1S2 (stereo unspecified)
Result: class 0

Request: Which outcome was assigned to CN(C)c1ccc2c(SCC(=O)OCC(=O)[C@@]3(O)CC[C@H]4[C@@H]5CCC6=CC(=O)C=C[C@]6(C)[C@H]5C(=O)C[C@@]43C)c3ccc(N(C)C)cc3nc2c1 in this test?
Result: class 1

Request: Outcome? CCCCCCCCCCCCCCCCOP(=O)(O)OCC(N)C(=O)O (stereo unspecified)
Result: class 1

Request: Could you check what this test reported for Cc1cccc[n+]1C1CCc2c(ccc3ccccc23)C1=O (stereo unspecified) ?
Result: class 0

Request: Just curious, what result did NC(=S)NC(=S)Nc1ccccc1 get here?
Result: class 0

Request: Answer briefly: the call reported for C=C1CC(CCCl)(c2ccccc2)OC1=O (stereo unspecified) in this assay.
Result: class 1

Request: // return assay outcome for COc1cc(O)c2c(c1O)C(=O)c1cc(C)ncc1C2=O
Result: class 0

Request: How was CCCC/C=C/C(C)(C(=O)OCC)C(=O)OCC classified in this test?
Result: class 0

Request: Outcome? Cc1cc(C(C)(C)C)c(OCCCN2CCOCC2)c(C(C)(C)C)c1
Result: class 0

Request: Hi, do you know how CC(NCCN(C)C)C1CCC2C3CCc4cc(O)ccc4C3CCC12C (stereo unspecified) came out in this test?
Result: class 0

Request: Recorded call for Cn1c(=O)c2c(nc(N)n2C2OC(CO)C(O)C2O)n(C)c1=O (stereo unspecified) ?
Result: class 1

Request: Tell me the recorded outcome of this test for Cc1cc(O)c(C(C)C)cc1C1(c2cc(C(C)C)c(O)cc2C)OC(=O)c2ccccc21 .
Result: class 1

Request: Please let me know the test result on file for CC1(C)CC(=O)C(/C=N/c2nc(-c3ccccc3)cs2)=C(O)C1 .
Result: class 0

Request: Record request — test call for COC(=O)NC1C(C)OC(OC2C/C=C(/C)C3C=CC4C(OC5CC(OC6CC(O)C(OC7CC(O)C(OC)C(C)O7)C(C)O6)C(O)C(C)O5)C(C)CC(C)C4C3(C)/C(O)=C3\C(=O)OC4(CC(C)C(CO)=CC4/C=C\2C)C3=O)CC1(C)[N+](=O)[O-] (stereo unspecified)
Result: class 0

Request: In this assay, the call recorded for N#CC1=C(N)N(/N=C/c2ccccc2)C(c2ccccc2)C1(C#N)C#N (stereo unspecified) was what?
Result: class 0
